# credit: the supplement of paper PMC10567573

B1: FBXO39 (parent)
chain: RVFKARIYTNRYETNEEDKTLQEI

# Variants of: B1
# PROTOCOL_NOTES: protein stability index of a GFP-peptide fusion (GPS, HEK-293T) (PSI 1-6); higher = more stable;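 also: lentivirally expressed fusions sorted by FACS into six bins by GFP to DsRed ratio, PSI derived from sequencing read proportions per bin multiplied by bin number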
# PARTICULARS: c terminus: a fixed tail appended
MEASUREMENT_NAME: protein stability index
Just the number, please, no unit attached.

For the variant `E23F` , give its measured protein stability index value.
1.93

For the variant `R11W` , give its measured protein stability index value.
2.19

For the variant `T14H` , give its measured protein stability index value.
2.5

For the variant `N10E` , give its measured protein stability index value.
3.31

For the variant `K4L` , give its measured protein stability index value.
1.99

For the variant `K4M` , give its measured protein stability index value.
2.65

For the variant `I7K` , give its measured protein stability index value.
2.24

For the variant `Q22R` , give its measured protein stability index value.
2.91

For the variant `T20G` , give its measured protein stability index value.
1.79

For the variant `D18F` , give its measured protein stability index value.
1.67

For the variant `K4N` , give its measured protein stability index value.
3.6

For the variant `R6F` , give its measured protein stability index value.
1.41

For the variant `L21W` , give its measured protein stability index value.
2.5

For the variant `T9R` , give its measured protein stability index value.
3.04

For the variant `Y8G` , give its measured protein stability index value.
3.46

For the variant `I24D` , give its measured protein stability index value.
3.26

For the variant `Y8I` , give its measured protein stability index value.
2.73

For the variant `Y8P` , give its measured protein stability index value.
2.45

For the variant `R1M` , give its measured protein stability index value.
3.34

For the variant `D18M` , give its measured protein stability index value.
2.22

For the variant `E17D` , give its measured protein stability index value.
3.12

For the variant `I7Q` , give its measured protein stability index value.
2.74

For the variant `V2N` , give its measured protein stability index value.
4.09

For the variant `Y12N` , give its measured protein stability index value.
3.13

For the variant `K19Y` , give its measured protein stability index value.
2.57

For the variant `K19F` , give its measured protein stability index value.
2.61

For the variant `F3Y` , give its measured protein stability index value.
2.59

For the variant `N10L` , give its measured protein stability index value.
2.11

For the variant `R6G` , give its measured protein stability index value.
3.7

For the variant `E16G` , give its measured protein stability index value.
2.33

For the variant `Y12T` , give its measured protein stability index value.
3.29

For the variant `E16T` , give its measured protein stability index value.
2.28

For the variant `V2H` , give its measured protein stability index value.
3.85

For the variant `I24C` , give its measured protein stability index value.
2.61

For the variant `Y12L` , give its measured protein stability index value.
2.1

For the variant `E23N` , give its measured protein stability index value.
2.15

For the variant `E23G` , give its measured protein stability index value.
2.19

For the variant `K4Q` , give its measured protein stability index value.
4.48

For the variant `N10R` , give its measured protein stability index value.
2.6

For the variant `R11T` , give its measured protein stability index value.
3.75

For the variant `D18I` , give its measured protein stability index value.
2.68

For the variant `V2K` , give its measured protein stability index value.
3.36

For the variant `L21V` , give its measured protein stability index value.
2.86

For the variant `Q22K` , give its measured protein stability index value.
2.38

For the variant `R1Q` , give its measured protein stability index value.
3.74

For the variant `R1W` , give its measured protein stability index value.
2.08
